# experimentalSystem: T1, human OX40-ECD-his (human, UniProt P43489 29-214)
# T1 construct: whole entry named
# T1 sequence: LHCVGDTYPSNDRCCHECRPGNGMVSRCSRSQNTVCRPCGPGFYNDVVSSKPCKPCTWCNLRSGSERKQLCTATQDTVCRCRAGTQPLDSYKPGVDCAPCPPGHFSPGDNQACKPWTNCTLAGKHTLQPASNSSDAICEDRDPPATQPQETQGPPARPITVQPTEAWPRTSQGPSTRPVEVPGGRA
# experimentNotes: ELISA, scFv supernatant on coated human OX40-ECD-his, anti-c-myc detection
experimentalReadout: binding result

[[record]]
binder = "MAB5 scFv clone (scFv) scFv: QVTLKESGPALVKPTQTLTLTCSFSGFSLSTSGMGVGWIRQPPGKALEWIAHIWWDDDKYYNTALKTRLTISKDTSKNQVVLTMTNMDPVDTATYYCARIDWDGFAYWGQGTLVTVSSGGGGSGGGGSGGGGSEIVLTQSPATLSLSPGERATLSCRASSSVSYMHWYQQKPGQAPRPWIYATSNRATGIPARFSGSGSGTDYTLTISSLEPEDFAVYYCQQTLHYPWTFGQGTKVEIK"
experimentalreadout = "binding result"
result = "binds"

[[record]]
binder = "MAB2 scFv clone (scFv) scFv: QVTLKESGPALVKPTQTLTLTCSFSGFSLSTSGMGVGWIRQPPGKALEWIAHIWWDDDKYYNTALKTRLTISKDTSKNQVVLTMTNMDPVDTATYYCARIDWDGFAYWGQGTLVTVSSGGGGSGGGGSGGGGSEIVLTQSPATLSLSPGERATLSCRASSSVSYMHWYQQKPGQAPRPWIYATSNRATGIPARFSGSGSGTDYTLTISSLEPEDFAVYYCQQFGDPPWTFGQGTKVEIK"
experimentalreadout = "binding result"
result = "binds"

[[record]]
binder = "MAB8 scFv clone (scFv) scFv: QVTLKESGPALVKPTQTLTLTCSFSGFSLSTSGMGVGWIRQPPGKALEWIAHIWWDDDKYYNTALKTRLTISKDTSKNQVVLTMTNMDPVDTATYYCARIDWDGFAYWGQGTLVTVSSGGGGSGGGGSGGGGSEIVLTQSPATLSLSPGERATLSCRASSSVSYMHWYQQKPGQAPRPWIYATSNRATGIPARFSGSGSGTDYTLTISSLEPEDFAVYYCQQTVAWPWTFGQGTKVEIK"
experimentalreadout = "binding result"
result = "binds"

